- target_or_system: CCR10 (Homo sapiens, UniProt P46092)
- Construct: expressed in transfected cells
- Sequence (P46092 whole entry): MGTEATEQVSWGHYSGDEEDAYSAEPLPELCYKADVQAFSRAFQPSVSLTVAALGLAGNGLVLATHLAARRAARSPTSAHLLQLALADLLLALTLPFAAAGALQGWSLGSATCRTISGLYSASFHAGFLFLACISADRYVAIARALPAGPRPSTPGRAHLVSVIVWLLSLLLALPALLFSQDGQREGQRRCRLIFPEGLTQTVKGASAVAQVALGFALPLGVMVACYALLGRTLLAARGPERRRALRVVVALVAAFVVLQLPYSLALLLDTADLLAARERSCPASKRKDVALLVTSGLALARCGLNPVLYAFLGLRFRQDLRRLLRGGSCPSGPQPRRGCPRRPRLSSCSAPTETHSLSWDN
- experimental_details: Figure S2a opioid peptide screen on chemokine receptors
- Format: cell-based
- Parameters: dose or concentration left out as unconfirmed
- condition_set: replicate 2, read-out: CCR10 activity, ctrl+ = 100
Starred links: 1 amine or outer side, 2 acyl side, 3 side chain; linkers in the order of their positions; H or OH if unused. Non-standard residues stand in square brackets, D forms with d. Residues, ends and D or L forms follow the SMILES beside them. X1 = N[C@@H](Cc1ccccc1)CN(CC(=O)[*:2])[*:1]
Readings of activation for the listed compounds
readout: activation

compound="C[C@H](NC(=O)CNC(=O)[C@@H](NC(=O)[C@H](Cc1ccccc1)NC(=O)CNC(=O)CNC[C@@H](N)Cc1ccccc1)[C@@H](C)O)C(=O)N[C@@H](CCCNC(=N)N)C(=O)N[C@@H](CCCCN)C(=O)N[C@@H](CO)C(=O)N[C@@H](C)C(=O)N[C@@H](CCCNC(=N)N)C(=O)N[C@@H](CCCCN)C(N)=O [FG Nociceptin 1-13] (H-[X1]GFTGARKSARK-NH2)" target_or_system="CCR10 (Homo sapiens, UniProt P46092)" result=-2.39%
compound="CC(C)C[C@H](NC(=O)[C@H](Cc1ccccc1)NC(=O)CNC(=O)CNC(=O)[C@@H](N)Cc1ccc(O)cc1)C(=O)N[C@@H](CCCN=C(N)N)C(=O)N[C@@H](CCCN=C(N)N)C(=O)N[C@@H](CCC(N)=O)C(=O)N[C@@H](Cc1ccccc1)C(=O)N[C@@H](CCCCN)C(=O)N[C@H](C(=O)N[C@H](C(=O)N[C@H](C(=O)O)[C@@H](C)O)C(C)C)C(C)C [Dynorphin B]" target_or_system="CCR10 (Homo sapiens, UniProt P46092)" result=-7.38%
